- assay-details: Selectivity index, ratio of IC50 for human WI38 cells to IC50 for chloroquine-sensitive Plasmodium falciparum FCA 20 Ghana
- Assay type: toxicity, cell-based, WI-38
- test-parameters: WI38 cells versus Plasmodium falciparum FCA 20 Ghana, read-out: Ratio IC50
Think of 7 as a floor: if selectivity ratio stands on it or above, it is 1; beneath it, 0.

Hello, I need to know if C/C=C1/CN2CCc3c([nH]c4ccccc34)[C@@H]2C[C@@H]1Cc1nccc2c1[nH]c1ccccc12 has measured selectivity ratio not below 7. Thanks!
0

Input C/C=C1/CN2[C@@H](C3=C[C@@H]4[C@@H]5N(C3=O)c3ccccc3[C@@]53CCN5C/C(=C/CO)[C@@H]4C[C@H]53)C[C@@]34c5ccccc5N5C(=O)CC=C([C@H]1C[C@H]23)[C@H]54
1

What do you get for C/C=C1/CN2CC[C@]34c5ccccc5N5C(=O)C([C@H]6C[C@]78c9ccccc9N9C(=O)C=C[C@@H]([C@H]97)[C@H]7C[C@@H]8N6C/C7=C/C)=C[C@H]([C@H]53)[C@H]1C[C@H]24 ?
0

Proceed to O=C1C[C@@H]2OCC=C3CN4[C@@H](C5=C[C@@H]6[C@@H]7N(C5=O)c5ccccc5[C@@]75CCN7C/C(=C/CO)[C@@H]6C[C@H]75)C[C@]56c7ccccc7N1[C@H]5[C@@H]2[C@H]3C[C@H]46
1
